B1: tRNA (parent)
chain: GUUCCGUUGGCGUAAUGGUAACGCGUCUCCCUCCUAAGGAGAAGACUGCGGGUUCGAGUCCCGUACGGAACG

- Variants of: B1
- Assay details: yeast fitness relative to wild type (ratio to wild type); higher = fitter; tRNA-Arg(CCU), competitive growth, 37 C, YPD
This sample holds only a part of the variants without activity.
Assignment: determine reported yeast fitness for the given variants.
Numbers only.

Example entries and their recorded answers appear below.
1. C4G C49U C66U :: 0.681
2. G56A G63A G67C :: 0.543

# batch size: 3; output yeast fitness per entry
1. C4U C27G A45C
2. A40U A65C A69U
3. C11G U26A C30U G48A U54A C55G A65U

a:
1. 0.564
2. 0.699
3. 0.664
